- Tested on: phospho-akt (Thr308) in PC-3 cells
- Measurement Notes: Inhibition of phospho-akt (Thr308) in PC-3 cells, MSD phospho-akt 308 ELISA kit
- Format: cell-based
- Conditions Used: Homo sapiens; inhibition of P308 Akt in PC-3 cells using MSD, 2 hours, no serum; read-out: EC50
Measured Parameter: EC50

Some solved cases for reference:
Molecule: C[C@H](NC(=O)c1nc(C#N)cnc1NCc1ccc(-c2cnc(N)c(NCC(O)CO)n2)cc1)c1ccc(F)c(F)c1 (stereo partly shown) [Example 244]
EC50: < 1 µM
//
Molecule: C[C@H](NC(=O)c1cc(C#N)cnc1NCc1ccc(-c2cnc3[nH]c(=O)n(C)c3c2)cc1)c1ccc(F)cc1 [Example 140]
EC50: < 1 µM
//
Molecule: C[C@H](NC(=O)c1cc(C#N)cnc1NCc1ccc(-c2cn(S(=O)(=O)c3ccccc3)nc2N)cc1)c1ccc(F)cc1 [Example 143]
EC50: > 10 µM

Record EC50 per entry; entries follow.
1. C[C@H](NC(=O)c1cc(C#N)cnc1NCc1ccc(-c2ccc(N)nc2)cc1F)c1ccc(F)cc1 [Example 128]
2. C[C@H](NC(=O)c1cc(C#N)cnc1NCc1ccc(-c2cnc(N)c(O[C@H]3CCNC3)n2)cc1)c1ccc(F)cc1 [Example 162]
3. C[C@H](NC(=O)c1cc(C#N)cnc1NCc1ccc(-c2cnc(N)c(CO)c2)cc1)c1ccc(F)cc1 [Example 136]

Result:
["1 to 10 µM", "< 1 µM", "1 to 10 µM"]

Request: Assign EC50 to the following record: C[C@H](NC(=O)c1cc(C#N)cnc1NCc1ccc(-c2ccn3ncnc(N)c23)cc1)c1ccc(F)cc1 [Example 174]
Result: < 1 µM

====

Task for the reader: assign each of the following compounds its reported EC50.
- System: phospho-akt (Thr308) in PC-3 cells
- Measurement Notes: Inhibition of phospho-akt (Thr308) in PC-3 cells, MSD phospho-akt 308 ELISA kit
- Assay type: cell-based
- Conditions Used: Homo sapiens; inhibition of P308 Akt in PC-3 cells using MSD, 2 hours, no serum; read-out: EC50

Query Smiles: Nc1cnc(-c2ccc(CNc3ncc(C(F)(F)F)cc3C(=O)NCc3ccc(F)c(F)c3)cn2)cn1
EC50: > 10000 nM
--
Query Smiles: C[C@H](NC(=O)c1cccnc1NCc1ccc(-c2cnc3[nH]c(=O)[nH]c3c2)cc1)c1ccc(F)cc1
EC50: < 1000 nM
--
Query Smiles: CCn1cc(-c2ccc(CNc3ncc(C(F)(F)F)cc3C(=O)Nc3ccc(F)cc3)cc2)c2c(N)ncnc21
EC50: 1000 to 10000 nM

Record EC50 per entry; entries follow.
1. C[C@H](NC(=O)c1cc(C#N)cnc1NCc1ccc(-c2cnc(N)c(CCCN(C)C)n2)cc1)c1ccc(F)cc1
2. C[C@H](NC(=O)c1cc(C#N)cnc1NCc1ccc(-c2cnc3c(c2)OCCN3)cc1)c1ccc(F)cc1
3. C[C@H](NC(=O)c1cc(C#N)cnc1NCc1ccc(-c2cnc3[nH]nc(N)c3c2)nc1)c1ccc(F)cc1
4. C[C@H](NC(=O)c1cc(C(F)(F)F)cnc1NCc1ccc(-c2cnc(N)cn2)cc1)c1ccc(F)cc1

Result:
["< 1000 nM", "1000 to 10000 nM", "< 1000 nM", "< 1000 nM"]
